- Tested on: LC3
- experiment: LC3 marker assay (LC3-I to LC3-II conversion immunoblot);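 note: HeLa cells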
- Format: cell-based
- Set-up: key: −: activity not reported; 0: decreased vs. WT; +: similar to WT; ++: modest increase vs. WT; +++: significant increase vs. WT
- study.conditions: 100 μM; Table 8, control compound T25; second symbol
Where no end group is shown, it is not given here. [ ]: non-standard residue; d: D form.
observable: Activity (μM) 100, LC3 assay activity

[[record]]
seq = "VCNATCRIWR (V[dC]NAT[dC]RIWR; not fully specified (C-terminus); cysteine pairing not given here) [Compound 42]"
experimental_target = "LC3"
value_reported = "0/0"

[[record]]
seq = "VCNACFHIWH [Compound 3]"
experimental_target = "LC3"
value_reported = "+++/+++"

[[record]]
seq = "VCNATCHIWH [Compound 48]"
experimental_target = "LC3"
value_reported = "+++/+++"

[[record]]
seq = "VCNATCHIWH [Compound 49]"
experimental_target = "LC3"
value_reported = "+++/+++"


* * *

- System: LC3
- experiment: LC3 marker assay (LC3-I to LC3-II conversion immunoblot);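 note: HeLa cells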
- Assay type: cell-based
- Design: key: −: activity not reported; 0: decreased vs. WT; +: similar to WT; ++: modest increase vs. WT; +++: significant increase vs. WT
- study.conditions: 30 μM; Table 8, control compound T25; second symbol
observable: Activity (μM) 30, LC3 assay activity

Example cases with answers are listed next.
[[record]]
seq = "VCNACFHIWH [Compound 54]"
experimental_target = "LC3"
value_reported = 0

[[record]]
seq = "VWNATCHIWC [Compound 59]"
experimental_target = "LC3"
value_reported = "0/0"

[[record]]
seq = "VCNACFHIWH [Compound 71]"
experimental_target = "LC3"
value_reported = "++"

[[record]]
seq = "VCNACFHIWH [Compound 56]"
experimental_target = "LC3"
value_reported = 0

[[record]]
seq = "VCNATCHIWH [Compound 34]"
experimental_target = "LC3"
value_reported = "++"


Next, consider the following sequence.
Data request, read-out Activity (μM) 30, LC3 assay activity, for VCNATCHIWH [Compound 30]
0/0

* * *

- Tested on: LC3
- experiment: LC3 marker assay (LC3-I to LC3-II conversion immunoblot);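 note: HeLa cells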
- Type: cell-based
- Set-up: key: −: activity not reported; 0: decreased vs. WT; +: similar to WT; ++: modest increase vs. WT; +++: significant increase vs. WT
- study.conditions: 30 μM; Table 8, control compound T25; second symbol
observable: Activity (μM) 30, LC3 assay activity

[[record]]
seq = "VCNACFHIWH [Compound 70]"
experimental_target = "LC3"
value_reported = "0/0"

[[record]]
seq = "VCNACFHIWH [Compound 73]"
experimental_target = "LC3"
value_reported = "+"

[[record]]
seq = "VCNACFHIWH [Compound 55]"
experimental_target = "LC3"
value_reported = 0

[[record]]
seq = "VCNATCHIWH [Compound 2]"
experimental_target = "LC3"
value_reported = "0/0"

